Origin of the recorded values: patent US20030162229A1

Entries and their measured log10(ED50) follow.
target: antiserum As #41 (sheep polyclonal, raised to the alpha subunit of human inhibin); experiment: RIA, competition with iodinated inhibin
Where no end group is shown, it is not given here. The star is where a group is joined. Biotin = O=C1N[C@H]2[C@H](CS[C@H]2CCCCC(=O)*)N1
// units: nM (pre-log); metric: ED50; scale: log10

binder	quantitative.readout
Biotin-SGSGALRLLQRPPEEPAA [biotinylated peptide #6 (Set 1) of the human (alpha)C subunit]	1.41

Exam item: Look up log10(ED50) for this binder: Biotin-SGSGGGCGLHIPPNLSLP [biotinylated peptide #18 (Set 1) of the human (alpha)C subunit]
Marked response: 3.02

Exam item: Field request: log10(ED50) | item: Biotin-SGSGETVPNLLTQHCACI (cysteine pairing not given here) [biotinylated peptide #33 (Set 1) of the human (alpha)C subunit]
Marked response: 3.60
